Target: T1, EsCas13d, nuclease-dead (Eubacterium siraeum, UniProt B0MS50, R295A;H300A;R849A;H854A)
T1 sequence: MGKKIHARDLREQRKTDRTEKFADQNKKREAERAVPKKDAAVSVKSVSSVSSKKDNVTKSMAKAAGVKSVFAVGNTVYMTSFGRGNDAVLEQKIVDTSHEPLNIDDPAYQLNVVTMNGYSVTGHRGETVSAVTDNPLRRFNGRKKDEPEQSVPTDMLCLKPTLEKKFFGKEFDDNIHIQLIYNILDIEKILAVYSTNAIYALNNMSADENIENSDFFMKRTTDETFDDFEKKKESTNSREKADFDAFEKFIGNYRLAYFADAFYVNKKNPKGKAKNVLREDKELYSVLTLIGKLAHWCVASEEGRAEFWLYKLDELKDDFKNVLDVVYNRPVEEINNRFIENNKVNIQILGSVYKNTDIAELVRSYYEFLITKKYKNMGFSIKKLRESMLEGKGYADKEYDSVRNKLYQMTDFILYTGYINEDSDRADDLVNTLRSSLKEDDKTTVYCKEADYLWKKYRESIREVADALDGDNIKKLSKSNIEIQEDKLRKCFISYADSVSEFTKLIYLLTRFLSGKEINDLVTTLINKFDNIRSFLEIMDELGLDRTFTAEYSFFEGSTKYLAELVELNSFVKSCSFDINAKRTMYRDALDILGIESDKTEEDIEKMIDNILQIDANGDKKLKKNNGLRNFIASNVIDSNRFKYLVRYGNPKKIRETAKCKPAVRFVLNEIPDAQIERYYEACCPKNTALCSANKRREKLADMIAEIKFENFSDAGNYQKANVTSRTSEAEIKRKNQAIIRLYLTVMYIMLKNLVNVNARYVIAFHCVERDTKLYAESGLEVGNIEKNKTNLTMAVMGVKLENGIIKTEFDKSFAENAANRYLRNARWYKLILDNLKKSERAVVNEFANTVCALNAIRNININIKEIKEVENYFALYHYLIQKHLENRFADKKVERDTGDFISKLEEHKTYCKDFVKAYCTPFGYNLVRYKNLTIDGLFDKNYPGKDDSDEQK
Assay: crRNA (strand 1, pre-loaded); Mg2+; 40 mM Tris-HCl pH 7.5, 150 mM NaCl, 6 mM MgCl2, 1 mM DTT, 0.1% Tween-20, 0.2 mg/ml BSA; 25 C; 10 min per concentration, then washed
Settings: tags: His6-TwinStrep-SUMO cleaved; N-terminal SNAP kept (SNAP-Surface 488); label: 3' end held by stalled T7 RNA polymerase
Recorded measurements of Kd, one per entry
# number only, unit nM dropped from output

{"columns": ["BINDER", "Kd / nM"],
 "data": [
  ["target 2 MT 5'PFS GAU 3'PFS AAC (mixed) RNA 1: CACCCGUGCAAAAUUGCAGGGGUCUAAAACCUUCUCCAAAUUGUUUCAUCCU RNA 2: GGGAAUGGAUCCACAUCUACGAAUUCGAUAGGAUGAAACAAUUUGGAGAAGAACAGAUCGGAAGAGCACACGU", 16]
]}

Entry target 1 insU 3' of 21,insU 3' of 1 (mixed) RNA 1: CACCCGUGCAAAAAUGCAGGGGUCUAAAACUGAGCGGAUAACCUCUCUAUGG RNA 2: GGGAAUGGAUCCACAUCUACGAAUUCGUACCUAUAGAGAGGUUAUCCGCUCAUCCGAGAUCGGAAGAGCACACGU — recorded Kd = 24.2

Entry target 1 C6U,G13U (mixed) RNA 1: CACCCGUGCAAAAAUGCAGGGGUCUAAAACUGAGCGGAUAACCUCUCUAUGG RNA 2: GGGAAUGGAUCCACAUCUACGAAUUCGUACCAUAGAGAUGUUAUCUGCUCACCGAGAUCGGAAGAGCACACGU — recorded Kd = 38

Entry target 2 MT 5'PFS UUG 3'PFS ACG (mixed) RNA 1: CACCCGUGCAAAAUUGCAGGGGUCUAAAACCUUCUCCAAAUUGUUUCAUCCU RNA 2: GGGAAUGGAUCCACAUCUACGAAUUCUUGAGGAUGAAACAAUUUGGAGAAGACGAGAUCGGAAGAGCACACGU — recorded Kd = 18.5

Entry target 1 U3C,U11G (mixed) RNA 1: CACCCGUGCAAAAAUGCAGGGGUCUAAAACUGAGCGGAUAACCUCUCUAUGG RNA 2: GGGAAUGGAUCCACAUCUACGAAUUCGUACCAUAGAGAGGGUAUCCGCCCACCGAGAUCGGAAGAGCACACGU — recorded Kd = 35

Entry target 1 A1C,U3G (mixed) RNA 1: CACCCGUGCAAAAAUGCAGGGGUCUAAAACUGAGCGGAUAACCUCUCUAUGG RNA 2: GGGAAUGGAUCCACAUCUACGAAUUCGUACCAUAGAGAGGUUAUCCGCGCCCCGAGAUCGGAAGAGCACACGU — recorded Kd = 46

Entry target 3 C1G,A9U (mixed) RNA 1: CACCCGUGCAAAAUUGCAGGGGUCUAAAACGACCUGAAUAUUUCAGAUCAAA RNA 2: GGGAAUGGAUCCACAUCUACGAAUUCGUUUUUGAUCUGAAAUUUUCAGGUGUGCAGAUCGGAAGAGCACACGU — recorded Kd = 100

Entry target 2 MT 5'PFS CAU 3'PFS UCG (mixed) RNA 1: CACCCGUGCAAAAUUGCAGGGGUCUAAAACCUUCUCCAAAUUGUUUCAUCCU RNA 2: GGGAAUGGAUCCACAUCUACGAAUUCCAUAGGAUGAAACAAUUUGGAGAAGUCGAGAUCGGAAGAGCACACGU — recorded Kd = 3.8

Ref: paper PMC10786891
